Reference source for all entries: PubChem BioAssay (NCI)

Entries below carry reported GI50 on SK-MEL-5 melanoma.

>  <Line Notation>
CCOC(=O)c1c(-c2ccccc2)[n+](=O)c2ccc(Cl)cc2n1[O-]

>  <Assayed Target>
SK-MEL-5 melanoma

>  <GI50>
1.63 µM

$$$$
>  <Line Notation>
O=C(Nc1n[nH]c2nc(-c3ccco3)ccc12)C1CC1

>  <Assayed Target>
SK-MEL-5 melanoma

>  <GI50>
> 25 µM

$$$$
>  <Line Notation>
COc1ccc(/C(C)=C(\c2ccc(Cl)cc2)c2ccc(OCCN3CCCC3)cc2)cc1F

>  <Assayed Target>
SK-MEL-5 melanoma

>  <GI50>
4.1 µM

$$$$
>  <Line Notation>
C/C(=N\NC(=O)c1cccnc1)c1cccc(/C(C)=N/NC(=O)c2cccnc2)n1

>  <Assayed Target>
SK-MEL-5 melanoma

>  <GI50>
2.05 µM

$$$$

Alright, here's another compound for you.
May I ask what GI50 has been recorded for "N=C(N)c1ccc(-c2ccc(-c3ccc(Cl)cc3)o2)o1" ? 1.81 µM

* * *

// reported TGI per item
Tested on: BT-549 breast
Experiment: NCI tumour cell line growth inhibition, 48 h

>  <Molecule>
Cc1cc(O)c(C(C)C)cc1CN1CCCCC1

>  <Assayed Target>
BT-549 breast

>  <TGI>
> 100 µM

$$$$
>  <Molecule>
CCC(C)C1NC(=O)C2CCCN2C(=O)C(CC2CO2)OC(=O)CCNC(=O)C(C)N(C)C(=O)C(C(C)C)N(C)C1=O (centres undefined)

>  <Assayed Target>
BT-549 breast

>  <TGI>
> 100 µM

$$$$
>  <Molecule>
C#CCN=C(N/N=C/c1ccc([N+](=O)[O-])o1)NS(=O)(=O)c1cc(C)c(Cl)cc1SCC(N)=O

>  <Assayed Target>
BT-549 breast

>  <TGI>
9.43 µM

$$$$
>  <Molecule>
COc1ccc(C(=O)N2CCc3c([nH]c4ccccc34)C2C(=O)O)o1 (centres undefined)

>  <Assayed Target>
BT-549 breast

>  <TGI>
> 10 µM

$$$$
>  <Molecule>
CN(C)CCn1c(=O)c2ccc3c4c(nn3CCN(C)C)c3cc(N)ccc3n(c1=O)c24

>  <Assayed Target>
BT-549 breast

>  <TGI>
0.78 µM

$$$$
>  <Molecule>
Nc1cc2c3c(cccc3c1)C(=O)N(c1ccc(OCCN3CCCCC3)cc1)C2=O

>  <Assayed Target>
BT-549 breast

>  <TGI>
38.4 µM

$$$$
>  <Molecule>
COC(=O)C(C)NP(=O)(OCc1ccc(Cn2cnc3c(=O)[nH]c(N)nc32)cc1)Oc1ccccc1 (centres undefined)

>  <Assayed Target>
BT-549 breast

>  <TGI>
> 100 µM

$$$$
>  <Molecule>
C=C1C[C@@H](O)[C@@H](Br)C(C)(C)[C@]12CCC(C)(Cl)C(Br)C2 (some centres undefined)

>  <Assayed Target>
BT-549 breast

>  <TGI>
> 100 µM

$$$$

May I ask what TGI has been recorded for CC(=O)Nc1ccc(C(=O)NN2C(=O)C(Cl)C2c2cc(Br)ccc2O)cc1 (centres undefined) ? > 100 µM

Another molecule to check: CCOC(=O)C(NC(=O)c1ccccc1)(Nc1ccc(S(=O)(=O)Nc2nc(C)cc(C)n2)cc1)C(F)(F)F (centres undefined) > 100 µM

Another molecule to check: "COc1ccc(/C(C)=C(\c2ccc(Cl)cc2)c2ccc(OCCN3CCCC3)cc2)cc1F" 6.74 µM

Another molecule to check: "c1cc(OCCN2CCCCCC2)ccc1CNc1ccc2nc(CCC3CCCCC3)[nH]c2c1" 5.54 µM

Another molecule to check: "CC1(C)C=C(/C=N/Nc2ccc([N+](=O)[O-])cc2)C(C#N)=C(O)C1(C#N)C#N" > 100 µM

Another molecule to check: CC1=NN(C(=O)CC(=O)Nc2ccccc2Cl)C(=O)C1N=Nc1ccc(C(=O)O)cc1 (centres undefined) > 100 µM

* * *

// reported TGI per item
System: COLO 205 colon
Assay: NCI tumour cell line growth inhibition, 48 h
State just the number; it will be interpreted in µM.

Please review the entries below; each comes with its answer.
>  <Line Notation>
Cc1c2c(nn1C(=O)c1nn(-c3ccc(Cl)cc3)cc1O)-c1ccccc1CC2

>  <TGI / µM>
4.22

$$$$
>  <Line Notation>
C=C1C(=O)O[C@H]2[C@H]1CC/C(Cn1cc(Cn3ccc4ccccc43)nn1)=C\CC[C@@]1(C)O[C@@H]21

>  <TGI / µM>
3.41

$$$$
>  <Line Notation>
O=C(Nc1nccs1)c1cc2c(cc1Cl)Sc1nccn1S2(=O)=O

>  <TGI / µM>
30.7

$$$$
>  <Line Notation>
CCOC(=O)/C(=C/c1ccc([N+](=O)[O-])cc1)C(=O)c1ccccc1

>  <TGI / µM>
3.89

$$$$

Alright, here's another molecule for you.
May I ask what TGI has been recorded for "N#Cc1c(-c2ccccc2)c(N=Nc2ccc(F)cc2)c(=O)n2c1[nH]c1ccccc12" ? 13

* * *

// reported TGI per item
System: M14 melanoma
Assay: NCI tumour cell line growth inhibition, 48 h

Please review the entries below; each comes with its answer.
>  <Compound>
CCCCCCCC/C=C/CCCCCCCC1=NC(C)(C)CN1C(C)C

>  <TGI>
2.86 µM

$$$$
>  <Compound>
CCOC(=O)c1c(-c2ccccc2)[n+](=O)c2ccc(Cl)cc2n1[O-]

>  <TGI>
21.7 µM

$$$$
>  <Compound>
N#CC(c1ccccc1)N1CCCN(C(C#N)c2ccccc2)C1c1ccccc1O (configuration not stated)

>  <TGI>
> 100 µM

$$$$
>  <Compound>
N#CC(=S)Nc1ccc(Cl)c(Cl)c1

>  <TGI>
> 60.6 µM

$$$$
>  <Compound>
O=C(Nc1n[nH]c2nc(-c3ccco3)ccc12)C1CC1

>  <TGI>
> 25 µM

$$$$

Alright, here's another compound for you.
May I ask what TGI has been recorded for "O=C1OCc2c1cc(F)cc2[N+](=O)[O-]" ? > 100 µM

* * *

Test system: UACC-257 melanoma
Test: NCI tumour cell line growth inhibition, 48 h
Measurement Kind: TGI

>  <Molecule>
O=C1OCC2(CO1)CC1C=CC2C1 (stereo not drawn)

>  <TGI>
> 100 µM

$$$$

Alright, here's another molecule for you.
May I ask what TGI has been recorded for C=CC1ON(C)CCc2cc(OC)c(OC)cc21 (stereo not drawn) ? > 100 µM

* * *

// reported TGI per item
System: HOP-62 NSCLC
Test: NCI tumour cell line growth inhibition, 48 h

Please review the entries below; each comes with its answer.
>  <Molecule>
Cc1n[nH]c(=S)n1/N=C/c1ccc(F)c(Oc2ccccc2)c1

>  <Experimental Value>
> 100 µM

$$$$
>  <Molecule>
Nc1ncnc(NC2C=C(CO)C(O)C2O)c1[N+](=O)[O-] (centres undefined)

>  <Experimental Value>
> 100 µM

$$$$
>  <Molecule>
C[C@@H](CO)OCOCc1ccccc1

>  <Experimental Value>
> 100 µM

$$$$
>  <Molecule>
C[C@]12CC[C@@H]3c4ccccc4CC[C@H]3[C@@H]1CC[C@@H]2O

>  <Experimental Value>
> 100 µM

$$$$

May I ask what TGI has been recorded for "O=C1c2ccccc2-c2nc3ccc(O)cc3n21" ? > 100 µM

Another molecule to check: "Cc1cc(O)c(C(C)C)cc1CN1CCCCC1" > 100 µM

* * *

Entries below carry reported GI50 on IGROV1 ovarian.
Where a SMILES comes first, the peptide text is derived from it.

>  <Molecule>
NC1=C(Cl)C(=O)c2ccc(S(N)(=O)=O)cc2C1=O

>  <GI50>
0.681 µM

$$$$
>  <Molecule>
C=C1C(=O)O[C@H]2[C@H]1CC/C(Cn1cc(Cn3ccc4ccccc43)nn1)=C\CC[C@@]1(C)O[C@@H]21

>  <GI50>
1.86 µM

$$$$
>  <Molecule>
CC(C)CC(NC(=O)C(CC(C)C)NC(=O)C(Cc1cnc[nH]1)NC(=O)C(C)NC(=O)C(NC(=O)C(C)NC(=O)C(Cc1c[nH]c2ccccc12)NC(=O)C(CCC(=O)O)NC(=O)C(N)Cc1ccccc1)C(C)C)C(N)=O (centres undefined) (H-FEWAVAHLL-NH2; configuration not given here)

>  <GI50>
> 100 µM

$$$$

May I ask what GI50 has been recorded for O=C(O)C1NCCc2c1[nH]c1ccccc21 (centres undefined) ? > 100 µM

Another molecule to check: "CN1CCC[C@@H]1CCO[C@](C)(c1ccccc1)c1ccc(Cl)cc1" 4.16 µM

* * *

// reported TGI per item
Tested on: HCT-15 colon
Assay: NCI tumour cell line growth inhibition, 48 h

>  <Molecule>
CCOC(=O)c1c(C)nc2ccc(Cl)cc2c1-c1ccccc1

>  <Experimental Value>
44.6 µM

$$$$
>  <Molecule>
CC1(C)C=C(/C=N/Nc2ccc([N+](=O)[O-])cc2)C(C#N)=C(O)C1(C#N)C#N

>  <Experimental Value>
> 100 µM

$$$$
>  <Molecule>
CCOC(=O)/C(=C/c1ccc([N+](=O)[O-])cc1)C(=O)c1ccccc1

>  <Experimental Value>
4.51 µM

$$$$

May I ask what TGI has been recorded for "O=C(O)c1ccc(O)c(N=Nc2cc(S(=O)(=O)O)c3ccccc3c2O)c1" ? > 10 µM

Another molecule to check: N#CC(c1ccccc1)N1CCCN(C(C#N)c2ccccc2)C1c1ccccc1O (centres undefined) > 100 µM

Another molecule to check: Cc1ccc2c(c1)C(=O)C(Cc1ccccc1C(=O)O)C2 (centres undefined) > 100 µM

Another molecule to check: C=C[C@]1(C)CCC2=C(CCC3C2(C)CCC[C@]3(C)CO)C1 (some centres undefined) > 100 µM

Another molecule to check: Cc1ccc(OCC2OC(C#N)C(Oc3ccc(C)cc3)C2Oc2ccc(C)cc2)cc1 (centres undefined) > 100 µM

Another molecule to check: "Cc1ccc2c(=O)cc(-c3cccc4ccccc34)[nH]c2n1" 1.73 µM

Another molecule to check: "COC(=O)C1=CN=C(C(=O)OC)NN1" > 100 µM
